tested on: monoclonal antibody specific for the natural N-terminal Aβ42 sequence DAEFRH; test: Inhibition assay: mimotope peptides compete with plate-bound DAEFRH-BSA for recognition by the biotinylated monoclonal antibody (ELISA); format: binding, mice; conditions: summary Tables 1 and 2, in words
Measured Metric: Inhibitory capacity of mimotopes

N=C(N)NCCC[C@H](NC(=O)[C@H](Cc1ccccc1)NC(=O)[C@H](CCC(=O)O)NC(=O)[C@H](Cc1ccc(O)cc1)NC(=O)[C@@H](N)CC(=O)O)C(=O)NCC(=O)N[C@@H](CS)C(=O)O [Peptide 3007, DYEFRG]    strong
CC[C@H](C)[C@H](NC(=O)[C@H](CCCNC(=N)N)NC(=O)[C@H](CC(C)C)NC(=O)[C@H](CCC(=O)O)NC(=O)[C@H](Cc1c[nH]c2ccccc12)NC(=O)[C@@H](N)CC(=O)O)C(=O)N[C@@H](CS)C(=O)O [Peptide 3002, DWELRI]    intermediate
N=C(N)NCCC[C@H](NC(=O)[C@H](Cc1ccccc1)NC(=O)[C@H](CCC(=O)O)NC(=O)[C@H](Cc1ccc(O)cc1)NC(=O)[C@@H](N)CCC(=O)O)C(=O)NCC(=O)N[C@@H](CS)C(=O)O [Peptide 1239, EYEFRG]    intermediate
C[C@@H](O)[C@H](NC(=O)[C@H](CCCNC(=N)N)NC(=O)[C@H](Cc1ccccc1)NC(=O)[C@H](CCC(=O)O)NC(=O)[C@H](Cc1c[nH]c2ccccc12)NC(=O)[C@@H](N)CO)C(=O)N[C@@H](CS)C(=O)O [Peptide 4002, SWEFRT]    strong
C[C@H](NC(=O)[C@H](CC(=O)O)NC(=O)[C@H](CCCNC(=N)N)NC(=O)[C@H](Cc1ccccc1)NC(=O)[C@H](CCC(=O)O)NC(=O)[C@H](Cc1c[nH]c2ccccc12)NC(=O)[C@@H](N)CC(=O)O)C(=O)N[C@@H](CS)C(=O)O [Peptide 1241, DWEFRDA]    strong

Asked: I'd like to know its Inhibitory capacity of mimotopes. The compound in question is CC[C@H](C)[C@H](NC(=O)[C@H](CCCCN)NC(=O)[C@H](CC(C)C)NC(=O)[C@H](CCC(=O)O)NC(=O)[C@H](CCCCN)NC(=O)[C@@H](N)CC(=O)O)C(=O)N[C@@H](CS)C(=O)O [Peptide 1236, DKELKI]
Given back: weak

Asked: Would you mind doing C[C@H](NC(=O)[C@@H](N)Cc1ccc(O)cc1)C(=O)N[C@@H](CCC(=O)O)C(=O)N[C@@H](Cc1ccccc1)C(=O)N[C@@H](CCCNC(=N)N)C(=O)NCC(=O)N[C@@H](CS)C(=O)O [Peptide 3005, YAEFRG] as well?
Given back: intermediate

Asked: Would you mind doing N=C(N)NCCC[C@H](NC(=O)[C@H](Cc1ccccc1)NC(=O)[C@H](CCC(=O)O)NC(=O)[C@H](Cc1ccccc1)NC(=O)[C@@H](N)CO)C(=O)NCC(=O)N[C@@H](CS)C(=O)O [Peptide 3009, SFEFRG] as well?
Given back: weak

Asked: Would you mind doing CC[C@H](C)[C@H](NC(=O)[C@H](CCCCN)NC(=O)[C@H](CC(C)C)NC(=O)[C@H](CCC(=O)O)NC(=O)[C@H](CCCNC(=N)N)NC(=O)[C@@H](N)CC(=O)O)C(=O)N[C@@H](CS)C(=O)O [Peptide 1237, DRELKI] as well?
Given back: weak
